target-or-test-system: F508delCFTR (Homo sapiens, UniProt P13569, DEL508-508)
Construct: expressed in transfected cells; host or cells: CFBE41o- (human lung derived epithelial cell line), doxycycline-inducible
Sequence (P13569 with tags, fused parts or gaps DEL508-508): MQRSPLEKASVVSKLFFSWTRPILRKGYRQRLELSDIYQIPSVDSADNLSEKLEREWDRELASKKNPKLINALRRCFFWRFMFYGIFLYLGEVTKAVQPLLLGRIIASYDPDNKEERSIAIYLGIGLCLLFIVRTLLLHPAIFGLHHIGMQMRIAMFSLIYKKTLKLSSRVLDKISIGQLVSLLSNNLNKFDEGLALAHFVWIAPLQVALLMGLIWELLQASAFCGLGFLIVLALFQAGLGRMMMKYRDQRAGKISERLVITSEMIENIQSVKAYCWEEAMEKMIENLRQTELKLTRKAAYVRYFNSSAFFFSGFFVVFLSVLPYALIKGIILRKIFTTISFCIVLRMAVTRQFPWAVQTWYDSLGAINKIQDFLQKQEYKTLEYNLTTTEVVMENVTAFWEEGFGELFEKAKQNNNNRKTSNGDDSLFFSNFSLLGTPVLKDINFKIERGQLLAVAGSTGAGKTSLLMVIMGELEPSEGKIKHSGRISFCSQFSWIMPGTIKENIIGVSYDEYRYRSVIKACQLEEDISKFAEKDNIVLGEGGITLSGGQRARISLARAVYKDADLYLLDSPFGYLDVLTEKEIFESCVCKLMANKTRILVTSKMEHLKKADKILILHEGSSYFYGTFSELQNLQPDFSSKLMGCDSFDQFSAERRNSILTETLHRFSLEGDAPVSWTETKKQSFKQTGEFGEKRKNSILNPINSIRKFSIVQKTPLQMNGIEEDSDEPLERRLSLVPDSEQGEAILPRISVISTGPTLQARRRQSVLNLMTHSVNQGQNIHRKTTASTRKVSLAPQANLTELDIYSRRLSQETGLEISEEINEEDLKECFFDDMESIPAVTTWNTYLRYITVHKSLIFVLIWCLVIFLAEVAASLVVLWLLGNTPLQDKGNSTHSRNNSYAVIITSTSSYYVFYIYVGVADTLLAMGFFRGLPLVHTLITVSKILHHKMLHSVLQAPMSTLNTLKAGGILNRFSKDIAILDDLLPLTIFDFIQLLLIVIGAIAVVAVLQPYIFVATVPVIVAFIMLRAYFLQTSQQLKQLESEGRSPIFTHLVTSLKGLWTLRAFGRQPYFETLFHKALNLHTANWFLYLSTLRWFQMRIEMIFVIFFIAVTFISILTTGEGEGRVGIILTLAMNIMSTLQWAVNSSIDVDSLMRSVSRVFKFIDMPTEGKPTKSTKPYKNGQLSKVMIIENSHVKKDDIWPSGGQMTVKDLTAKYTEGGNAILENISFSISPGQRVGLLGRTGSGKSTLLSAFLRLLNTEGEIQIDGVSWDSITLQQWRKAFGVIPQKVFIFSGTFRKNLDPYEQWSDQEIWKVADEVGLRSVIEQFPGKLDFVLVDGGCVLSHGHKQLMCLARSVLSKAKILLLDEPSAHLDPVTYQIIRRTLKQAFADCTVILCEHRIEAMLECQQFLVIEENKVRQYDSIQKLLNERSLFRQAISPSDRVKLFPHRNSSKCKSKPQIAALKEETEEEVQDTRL
protocol-description: Cell Surface Expression-Horse Radish Peroxidase (CSE-HRP) assay
Type: cell-based
condition-notes: CFBE41o-F508delCFTR-HRP cells; maximum at any tested concentration, normalized to on-plate positive control (3 μM)
metric: Maximum % activity (%)

smiles-code	quantitative-readout
COc1ccc2c(c1)O[C@@H](c1ccc(C(=O)O)cc1)C[C@H]2NC(=O)C1(c2ccc(Cl)cc2)CC1	77.7

P. COc1ccc2c(c1)O[C@@H](c1ccc(C(=O)O)cc1)C[C@H]2NC(=O)C(C)(C)c1ccc2c(c1)OCCO2
Q. COc1ccc2c(c1)[C@](C)(C(=O)N[C@@H]1C[C@H](c3cccc(C(=O)O)c3)Oc3ccccc31)CC2
R. COC(=O)c1cccc([C@H]2C[C@@H](NC(=O)[C@]3(C)CCc4cc(OC)ccc43)c3ccc(OC)cc3O2)c1
*Q* // smallest Maximum % activity at index 0, largest at the end Response format: the labels, sorted as the prompt asks.
*A* Q, R, P

P. COc1ccc2c(c1)O[C@@H](c1ccc(C(=O)O)cc1)C[C@H]2NC(=O)C1(c2ccc(C#N)cc2)CC1
Q. COc1ccc2c(c1)O[C@@H](c1cccc(C(=O)O)c1)C[C@H]2NC(=O)C(C)(C)c1ccc(OCC(C)C)cc1
*Q* For this pair, P and Q , which shows a numerically higher Maximum % activity? Identify your selection by its label.
*A* P
(P: 62.0%, Q: 6.1%)

###

target-or-test-system: F508delCFTR (Homo sapiens, UniProt P13569, DEL508-508)
Construct: expressed in transfected cells; host or cells: CFBE41o- (human lung derived epithelial cell line), doxycycline-inducible
protocol-description: Cell Surface Expression-Horse Radish Peroxidase (CSE-HRP) assay
Assay type: cell-based
condition-notes: CFBE41o-F508delCFTR-HRP cells; maximum at any tested concentration, normalized to on-plate positive control (3 μM)
metric: Maximum % activity (%)

molecule	target-or-test-system	Maximum % activity, %
COc1ccc2c(c1)O[C@@H](c1cccc(C(=O)O)c1)C[C@H]2NC(=O)C1(c2ccc(OC(F)(F)F)cc2)CC1	F508delCFTR (Homo sapiens, UniProt P13569, DEL508-508)	62.2

I. COc1ccc2c(c1)O[C@@H](c1cccc(C(=O)O)c1)C[C@H]2NC(=O)[C@]1(C)CCc2cc(C)ccc21 (single isomer, unassigned)
II. C[C@]1(C(=O)N[C@@H]2C[C@H](c3cccc(C(=O)O)c3)Oc3ccccc32)Cc2cc(Cl)ccc2O1
*Q* For the pair I and II , which member has the lower Maximum % activity number? Identify your selection by its label.
*A* II
(II: 1.6%, I: 70.7%)

###

target-or-test-system: F508delCFTR (Homo sapiens, UniProt P13569, DEL508-508)
Construct: expressed in transfected cells; host or cells: CFBE41o- (human lung derived epithelial cell line), doxycycline-inducible
protocol-description: Cell Surface Expression-Horse Radish Peroxidase (CSE-HRP) assay
Type: cell-based
condition-notes: CFBE41o-F508delCFTR-HRP cells; maximum at any tested concentration, normalized to on-plate positive control (3 μM)
Protocol: Cell Surface Expression-Horse Radish Peroxidase (CSE-HRP) Assay: A cellular assay for measuring the F508delCFTR cell surface expression after correction with test compounds was developed in human lung derived epithelial cell line (CFBE41o-) (Veit G et al, (2012) Mol Biol Cell. 23(21): 4188-4202). […] The raw counts from the experiment are analyzed using Accelrys® Assay Explorer v3.3. […]
metric: Maximum % activity (%)

Worked examples, 2 compounds total:
smiles-code	target-or-test-system	quantitative-readout
CC(C)(C(=O)N[C@@H]1C[C@H](c2cccc(C(=O)O)c2)Oc2ccccc21)c1ccc(C(F)(F)F)cc1	F508delCFTR (Homo sapiens, UniProt P13569, DEL508-508)	57.9
COC(=O)c1cccc([C@H]2C[C@@H](NC(=O)[C@@]3(C)CCc4cc(OC)ccc43)c3ccccc3O2)c1	F508delCFTR (Homo sapiens, UniProt P13569, DEL508-508)	48.4

1. COc1ccc2c(c1)O[C@@H](c1ccc(C(=O)O)cc1)C[C@H]2NC(=O)C1(c2cccc(F)c2)CC1
2. COc1ccc2c(c1)O[C@@H](c1ccc(C(=O)O)cc1)C[C@H]2NC(=O)C1(c2ccccc2Cl)CCC1
*Q* For this pair, 1 and 2 , which shows a numerically higher Maximum % activity? Identify your selection by its label.
*A* 1
